# tested.system: recombinant human plasminogen activator inhibitor-1 (PAI-1) (Homo sapiens, UniProt P05121)
# Construct: purchased Molecular Innovations, Royal Oak, Mich
# Sequence (P05121 24-402): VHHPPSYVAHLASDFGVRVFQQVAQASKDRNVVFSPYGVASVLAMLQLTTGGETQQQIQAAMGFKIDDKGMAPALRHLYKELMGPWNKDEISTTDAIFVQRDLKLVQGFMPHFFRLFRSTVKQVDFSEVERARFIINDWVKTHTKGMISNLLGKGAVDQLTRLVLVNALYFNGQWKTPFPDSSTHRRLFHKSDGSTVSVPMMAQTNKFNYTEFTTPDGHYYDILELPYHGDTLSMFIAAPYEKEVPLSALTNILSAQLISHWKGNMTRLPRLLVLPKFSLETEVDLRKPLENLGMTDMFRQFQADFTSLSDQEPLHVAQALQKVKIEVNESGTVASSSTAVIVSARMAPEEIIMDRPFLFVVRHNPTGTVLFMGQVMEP
# assay.text: Primary screen for PAI-1 inhibition (chromogenic tPA activity, Spectrozyme-tPA)
# Format: biochemical
# experimental.setup: test compound 25 μM; 140 nM PAI-1, 70 nM tPA, pH 6.6
# Description: Test compounds are dissolved in DMSO at a final concentration of 10 mM, then diluted 100× in physiologic buffer. […] Following the second incubation, Spectrozyme-tPA (American Diagnostica, Greenwich, Conn.), a chromogenic substrate for tPA, is added and absorbance read at 405 nm at 0 and 60 minutes. […]
observable: inhibition at 25 µM (%)
Respond numerically; units are % and should not be typed.

Known results for compounds:
c1ccc(-c2ccc(-c3ccc4cc(OCc5nnn[nH]5)ccc4c3)[nH]2)cc1 ... 52
c1ccc(Cn2c(-c3ccccc3)ccc2-c2ccc3cc(OCc4nnn[nH]4)ccc3c2)cc1 ... 67

# evaluate next
inhibition at 25 µM for O=C(O)C(Cc1ccccc1)Oc1ccc2cc(-c3ccc(-c4ccccc4)n3Cc3ccccc3)ccc2c1 (stereo not drawn) is 66
